# procedure summary: Cmax in monkeypox virus infected cynomolgus monkey at 20 mg/kg, po administered as single dose under fed condition measured after 1 day
# Type: ADME, organism-based, Macaca fascicularis
# Design: dose 20 mg/kg, route oral
# conditions: in vivo

{"compound": "O=C(NN1C(=O)[C@@H]2[C@@H]3C=C[C@@H]([C@H]4C[C@@H]34)[C@@H]2C1=O)c1ccc(C(F)(F)F)cc1 [TECOVIRIMAT]", "Cmax, ng/mL": 1260}

* * *

# procedure summary: Cmax in human at 4.2 mg/kg, po qd for 21 days administered under fed condition measured after 21 days
# Format: ADME, organism-based
# Parameters: dose 4.2 mg/kg, route oral
# conditions: in vivo
parameter: Cmax (ng/mL)

{"chemical string": "O=C(NN1C(=O)[C@@H]2[C@@H]3C=C[C@@H]([C@H]4C[C@@H]34)[C@@H]2C1=O)c1ccc(C(F)(F)F)cc1", "val": 1100}

* * *

# procedure summary: Cmax in human at 6.7 mg/kg, po administered as single dose under fed condition measured after 1 day
# Format: ADME, organism-based
# Parameters: dose 6.7 mg/kg, route oral
# conditions: in vivo
parameter: Cmax (ng/mL)

{"chemical string": "O=C(NN1C(=O)[C@@H]2[C@@H]3C=C[C@@H]([C@H]4C[C@@H]34)[C@@H]2C1=O)c1ccc(C(F)(F)F)cc1", "unit annotation": "ng/mL", "val": 1390}

* * *

# procedure summary: AUC (0 to 24 hrs) in human at 4.2 mg/kg, po administered as single dose under fed condition measured after 1 day
# Type: ADME, organism-based
# Parameters: time < 24 hr, dose 4.2 mg/kg, route oral
# conditions: plasma
parameter: AUC(0-t) at 24 h

{"molecule": "O=C(NN1C(=O)[C@@H]2[C@@H]3C=C[C@@H]([C@H]4C[C@@H]34)[C@@H]2C1=O)c1ccc(C(F)(F)F)cc1 [TECOVIRIMAT]", "val": "9100 ng·h/mL"}

* * *

# procedure summary: Cmax in monkeypox virus infected cynomolgus monkey at 30 mg/kg, po qd for 14 days administered under fed condition measured after 7 days
# Type: ADME, organism-based, Macaca fascicularis
# Parameters: dose 30 mg/kg, route oral
# conditions: in vivo
parameter: Cmax

{"chemical string": "O=C(NN1C(=O)[C@@H]2[C@@H]3C=C[C@@H]([C@H]4C[C@@H]34)[C@@H]2C1=O)c1ccc(C(F)(F)F)cc1", "parameter": "Cmax", "val": "1510 ng/mL"}

* * *

# procedure summary: AUC (0 to 24 hrs) in monkeypox virus infected cynomolgus monkey at 10 mg/kg, po qd for 14 days administered under fed condition measured after 7 days
# Type: ADME, organism-based, Macaca fascicularis
# Set-up: time < 24 hr, dose 10 mg/kg, route oral
# conditions: plasma
parameter: AUC at 24 h

{"chemical string": "O=C(NN1C(=O)[C@@H]2[C@@H]3C=C[C@@H]([C@H]4C[C@@H]34)[C@@H]2C1=O)c1ccc(C(F)(F)F)cc1", "val": "12600 ng·h/mL"}

* * *

# procedure summary: AUC (0 to 24 hrs) in human at 4.2 mg/kg, po qd for 21 days administered under fed condition measured after 21 days
# Type: ADME, organism-based
# Design: time < 24 hr, dose 4.2 mg/kg, route oral
# conditions: plasma
parameter: AUC at 24 h (ng·h/mL)

{"chemical string": "O=C(NN1C(=O)[C@@H]2[C@@H]3C=C[C@@H]([C@H]4C[C@@H]34)[C@@H]2C1=O)c1ccc(C(F)(F)F)cc1", "parameter": "AUC at 24 h", "val": 10100}
